# Tested on: AR 1.0 cells
# test: Drug accumulation assay (tritiated daunorubicin, AR 1.0 cells)
# Type: cell-based, mouse
# conditionNotes: Mus musculus, 1 h, daunorubicin accumulation, 37° C., DNR 2 μM
pIC50: −log10 of the molar value.
Output 1 (yes) for pIC50 not less than 5; output 0 (no) otherwise.

{"columns": ["structureSmiles", "group"],
 "data": [
  ["O=c1[nH]/c(=C\\c2ccncc2)c(=O)n(Cc2ccccc2)/c1=C\\c1ccccc1", "0 (no)"],
  ["Cn1c(=O)/c(=C/c2ccccc2)nc(OCCCN2C(=O)C(=O)c3ccccc32)/c1=C/c1ccccc1", "1 (yes)"],
  ["Cn1c(=O)/c(=C/c2cn(C(=O)OC(C)(C)C)c3ccccc23)n(C)c(=O)/c1=C/c1cccs1", "1 (yes)"],
  ["COc1ccc(/C=c2/c(=O)n(C)/c(=C\\C=Cc3ccccc3)c(=O)n2C)cc1", "0 (no)"],
  ["Cn1c(=O)/c(=C/C2CCCCC2)n(C)c(=O)/c1=C/c1ccccc1", "1 (yes)"],
  ["Cn1c(=O)/c(=C/c2cn(C(=O)OC(C)(C)C)c3ccccc23)n(C)c(=O)/c1=C/c1ccccc1", "1 (yes)"],
  ["Cn1c(=O)/c(=C/c2ccccc2[N+](=O)[O-])n(C)c(=O)/c1=C/c1cccs1", "0 (no)"],
  ["Cn1c(=O)/c(=C/c2cn(C(=O)OC(C)(C)C)c3ccccc23)n(C)c(=O)/c1=C/c1ccoc1", "1 (yes)"],
  ["Cn1c(=O)/c(=C/c2cn(CN3C(=O)c4ccccc4C3=O)c3ccccc23)n(C)c(=O)/c1=C/c1ccccc1", "1 (yes)"],
  ["Cn1c(=O)/c(=C/c2ccccc2)nc(OCCCN2C(=O)CCC2=O)/c1=C/c1ccccc1", "1 (yes)"],
  ["COc1ccc(/C=c2/c(=O)n(Cc3ccccc3)/c(=C\\c3ccoc3)c(=O)n2C)cc1", "1 (yes)"],
  ["COc1ccc(/C=c2\\[nH]c(=O)/c(=C/c3cccs3)n(C)c2=O)cc1", "0 (no)"],
  ["Cn1c(=O)/c(=C/c2cn(C(=O)OC(C)(C)C)c3ccccc23)n(C)c(=O)/c1=C/c1c(Cl)cccc1Cl", "1 (yes)"]
]}

###

# Tested on: AR 1.0 cells
# test: Proliferation/toxicity assay, compound alone and with cytotoxic agent (sulphorhodamine B)
# Type: cell-based, mouse
# conditionNotes: cytotoxic agent (doxorubicin) 0.50 μg/ml; 5760 min; read-out: TOXICITY WITH CYTOTOXIC AGENT (IC 50 μM)
reportedEndpoint: log10 IC50 (log10 of the value in µM)

{"columns": ["compound", "log10 IC50"],
 "data": [
  ["Cn1c(=O)/c(=C/c2cn(C(=O)OC(C)(C)C)c3ccccc23)n(C)c(=O)/c1=C/c1cccs1 [Compound 1834]", -0.10],
  ["O=c1[nH]/c(=C\\c2ccncc2)c(=O)n(Cc2ccccc2)/c1=C\\c1ccccc1 [Compound 1839]", 0.18],
  ["O=c1[nH]/c(=C\\c2ccncc2)c(=O)n(Cc2ccccc2)/c1=C\\c1ccccc1 [Compound 1840]", 0.00],
  ["Cn1c(=O)/c(=C/c2c[nH]c3ccccc23)n(C)c(=O)/c1=C/c1ccccc1 [Compound 1896]", 0.60],
  ["Cn1c(=O)/c(=C/c2cn(CN3C(=O)c4ccccc4C3=O)c3ccccc23)n(C)c(=O)/c1=C/c1ccccc1 [Compound 1897]", 0.18],
  ["Cn1c(=O)/c(=C/c2cn(C(=O)OC(C)(C)C)c3ccccc23)n(C)c(=O)/c1=C/c1ccoc1 [Compound 1875]", -0.10],
  ["Cn1c(=O)/c(=C/C2CCCCC2)n(C)c(=O)/c1=C/c1ccccc1 [Compound 1871]", 0.00],
  ["Cn1c(=O)/c(=C/c2cn(CCCN3C(=O)c4ccccc4C3=O)c3ccccc23)n(C)c(=O)/c1=C/c1ccccc1 [Compound 1943]", -0.70]
]}

###

# Tested on: AR 1.0 cells
# test: Drug accumulation assay (tritiated daunorubicin, AR 1.0 cells)
# Format: cell-based, mouse
# conditionNotes: Mus musculus, 1 h, daunorubicin accumulation, 37° C., DNR 2 μM

{"columns": ["structureSmiles", "IC50"],
 "data": [
  ["Cn1c(=O)/c(=C/c2cn(C(=O)OCc3ccccc3)c3ccccc23)n(C)c(=O)/c1=C/c1ccccc1", "10 µM"],
  ["COc1ccc(/C=c2/c(=O)n(Cc3ccccc3)/c(=C\\c3cn(C(=O)OC(C)(C)C)c4ccccc34)c(=O)n2C)cc1", "10 µM"],
  ["Cn1c(=O)/c(=C/c2cn(CCCN3C(=O)c4ccccc4C3=O)c3ccccc23)n(C)c(=O)/c1=C/c1ccccc1", "10 µM"],
  ["Cn1c(=O)/c(=C/c2ccccc2)n(CCCN2C(=O)CCC2=O)c(=O)/c1=C/c1ccccc1", "10 µM"],
  ["Cn1c(=O)/c(=C/c2c[nH]c3ccccc23)n(C)c(=O)/c1=C/c1ccccc1", "12 µM"]
]}
